- ASSAY_REMARKS: soluble fraction after stress (log2 fold change); higher = more stays soluble; pooled small domains, quantitative proteomics
- PROTOCOL_CONDITIONS: stress: pH 4
Given measured soluble fraction (log2), output Satisfied if it is greater than or equal to -0.5 and Not satisfied if not.

Does the sequence `HMGPTLSPAEKRVFEVIPYDAILQDMVIRAAELPPGEVLAALTTLELKGLIKRLPGNLVMRRAR` have recorded soluble fraction (log2) that is -0.5 or more?
Satisfied

Does the sequence `HMLAVSVDKDGKVYIQDSETAVDAVTAKLRAISGNNSEIRIFVRGDADVNYGRIMEIMGVINAAGFRKVAL` have recorded soluble fraction (log2) that is -0.5 or more?
Not satisfied

Does the sequence `HMDPALSPAEQKIWDLLAAGETHIDDLVRASGLPVATVNSALVMMEMKEVISQVAAKTYRRNRRN` have recorded soluble fraction (log2) that is -0.5 or more?
Satisfied

Does the sequence `HMATRLPFGFAKRFGVLVEGKDDQITVYHKDGLQTAVILEIQRYLARPFRFEAVTPEEFERRLGLAYQS` have recorded soluble fraction (log2) that is -0.5 or more?
Not satisfied

Does the sequence `HMVKDIEFSLPLEQDYYKVLISVKDSQGKRQVYEELHRAGDTVYAAVRYYGSGELEIHLNGKFYKTIK` have recorded soluble fraction (log2) that is -0.5 or more?
Not satisfied

Does the sequence `HMTQTDINQIETLVHEGNKLAAVKLLMDTAHIGLKEAKDIIDNFFLGKQTDLQAAVAQVQTR` have recorded soluble fraction (log2) that is -0.5 or more?
Not satisfied

Does the sequence `HMETVRLSVDAQGAYYWNEQRVDDSALPDLLREASGRKPQPDLHIRGDKAVRYERVAEAMAAAQRAGLKKI` have recorded soluble fraction (log2) that is -0.5 or more?
Satisfied

Does the sequence `HMNKSGVVLIRVTVDASGRVTSAAYEPKGSTTSDVELVAEARKAALRTRFTESRTVIEGGVITYIFKL` have recorded soluble fraction (log2) that is -0.5 or more?
Satisfied

###

- ASSAY_REMARKS: soluble fraction after stress (log2 fold change); higher = more stays soluble; pooled small domains, quantitative proteomics
- PROTOCOL_CONDITIONS: stress: pH 4
QUANTITY: soluble fraction (log2)
Reply with just the number.

// Input: `HMDKNNLLIIYRTNSEGTPYAFSVTPSAKSLDALHKDAKEMLPFLEKSMNNFFSIQIWERAEYLKY` . Output its soluble fraction (log2) only.
-0.379

// Input: `HMNEFNEVVPDSLEGERLDRLLAFIGNISRSEASNIIKGGEVLINGKVVTRPSFKVTLGNRVEFSIRD` . Output its soluble fraction (log2) only.
-0.19

// Input: `HMLQLKEPLKKVYERLTPVPKTAETILAELWEKGEYLDIAALHRALMELELSGYVRQSSPGYFGTSA` . Output its soluble fraction (log2) only.
0.00945

// Input: `HMSLNNAHNTIFPRIIELMEMKQLENVLLIGGGIIPRKDIESLESSGVTKLYGPGTPVKETIEFITNWVK` . Output its soluble fraction (log2) only.
-0.533

// Input: `HMKHKGILTTWNDDRGFGFITPKEGKEPVFVHISAFARGQGRPVLNASLTYRLVRDDQQRPRAEAVRL` . Output its soluble fraction (log2) only.
0.189

// Input: `HMTVLSKEEFVAIEQRLLQLLGTAPVDNKILLQQLSGIKKEKAWKVLSFLQAENKIGMDATGRVYL` . Output its soluble fraction (log2) only.
-0.697

// Input: `HMTALTTEDLERRFYAKTYEGESAQKRLARLEISVFGELRQGRPESDRLHDLNNAVLEKERAALNAGAVG` . Output its soluble fraction (log2) only.
-0.0471

// Input: `HMAVDAASSTIGKNVEVSVANEKGDYENFNGKVKSASIKDGVVYLELELKDTGEIKEVPYSSLTKIT` . Output its soluble fraction (log2) only.
0.355

// Input: `HMLQFTYPRLHTKKSWYVDFMSFDPGAGKMRRKKFMLDGIPKITDRRKRAAELIEVLTKQLRAGWSPWVNV` . Output its soluble fraction (log2) only.
0.403

// Input: `HMELSESLENYLVVIYEAHLRNEIARIKDMTASLSVKHTSAIDAIKKLEDLGIVNYEKRGFVKLTQSGIEK` . Output its soluble fraction (log2) only.
-0.177

// Input: `HMREQAHEVAGKLGYPVMVKASAGGGGKGIRIVRTEDELDQAFEAAQSETKAAFGDDQMYMEKVI` . Output its soluble fraction (log2) only.
-0.176

// Input: `HMDEEAIELTQEVMKLPPKQREVILLYYYHGLTGKEIAKALGISGAAVSKRLKQAKNQLHFALK` . Output its soluble fraction (log2) only.
0.0819

// Input: `HMASPEIAFLNKFYQLSNTVNEISVMKIVKNYQEKYQQRISIEQMAKTLKTMGYAVRNNIISNIEEAPV` . Output its soluble fraction (log2) only.
0.0906

// Input: `HMGLLLSQLDKDYQRYIDLADSTFRDNQLAVSRGWYNRALGVKAAEKYPKDQIAEIEKKIAERM` . Output its soluble fraction (log2) only.
-0.108

// Input: `HMGTIEQAFKGKAPGSAHLYDRARAVLAGGVTHDTRIHAPFPIMVQRALGARKWDVDGNEYIDY` . Output its soluble fraction (log2) only.
-0.259

// Input: `HMNDLIKMPYLVGQLYDDVASNQEYADFQFKITEGNDPDKQPGEIMKQDPAADIMVKKNAEVELLVNG` . Output its soluble fraction (log2) only.
0.193

###

- ASSAY_REMARKS: soluble fraction after stress (log2 fold change); higher = more stays soluble; pooled small domains, quantitative proteomics
- PROTOCOL_CONDITIONS: stress: pH 4
Given measured soluble fraction (log2), output satisfied if it is greater than or equal to -0.3 and not satisfied if not.

Does the sequence `HMQLDLTSTLDHMYKQMRNDHPRALLMAVEKEMVLRALKETDGNQLRASDILGISRSTLRKRIEEFDINS` have recorded soluble fraction (log2) that is -0.3 or more?
satisfied

Does the sequence `HMNGVFIMHTPDGKVLRTEEGEEAVITLFNWSGQLLWSKTSLGQLPLPEGTQGVLQVQYKSGDQHTIKT` have recorded soluble fraction (log2) that is -0.3 or more?
not satisfied

Does the sequence `HMSQEHTVPDYKDMEATVVYADLTQKGLNYEIAQETSPTIKEGNVTQTIPGMNEKVVSGDTITVFVSTGTG` have recorded soluble fraction (log2) that is -0.3 or more?
not satisfied

Does the sequence `HMIVNTTRAPYLLGETEQDAMRLARQAGLVPEIVRQSSAEPAGTVILQSHDFDYRMRRGSVILITVSTGPL` have recorded soluble fraction (log2) that is -0.3 or more?
satisfied

Does the sequence `HMNPHGVAIIDVRKGKASTLRSLATSVRSLGEWDQLKIPIFNLESLTSLVLWHGLDAIVKEPESLQSNLIL` have recorded soluble fraction (log2) that is -0.3 or more?
satisfied

Does the sequence `HMSNVKVYPNPTSGKLTIDAENYKGVEVYDTSGRLIVKSELRTIDLEEQSKGLYLLKVNANGTTQEFKVFK` have recorded soluble fraction (log2) that is -0.3 or more?
not satisfied

Does the sequence `HMRNKTVKEVLDYIEKNSEFIFFYYSKAIDTKRIVSLSVKDQPITVILDQLFKNTDVLYEIKDRQISLKRE` have recorded soluble fraction (log2) that is -0.3 or more?
not satisfied

Does the sequence `HMDVIGLEAAKSAAVKDAGISSPTFTKATLDRDDGRSLYEIEFISGSTKYEYDIDALTGSVLSKKTRALS` have recorded soluble fraction (log2) that is -0.3 or more?
satisfied

###

- ASSAY_REMARKS: soluble fraction after stress (log2 fold change); higher = more stays soluble; pooled small domains, quantitative proteomics
- PROTOCOL_CONDITIONS: stress: pH 4
Given measured soluble fraction (log2), output T if it is greater than or equal to -0.2 and F if not.

Does the sequence `HMQESVTVSAQALRRLLEKGDGDAALLYLALLRHHGTIQPRALAGELRWERPRIEAAEEALRQMGLIA` have recorded soluble fraction (log2) that is -0.2 or more?
T

Does the sequence `HMIPDAIDPDGRFKWRAGEAVVGFGRHAGEPLKKIAIENPEFLRWILKADFSTDVKKIASDALKGYFPEK` have recorded soluble fraction (log2) that is -0.2 or more?
T

Does the sequence `HMRNDIFDQLTEREMQILQEVAKGYRNKQIADHLFISESTVKVHMKSLLKKLQVPSRTAATVLYLERYG` have recorded soluble fraction (log2) that is -0.2 or more?
F

Does the sequence `HMAAVPYQVKITTEDLRIRTGPGTNHDFTGQYTGKGVFTIVEESEGSGAPIWGRLKSGAGWIGIDPSWSVR` have recorded soluble fraction (log2) that is -0.2 or more?
F

Does the sequence `HMNRETAISIYRILHILEEPYKEVFTLRTLGDLSYREIADIFGKQENWARVTYHRAKLKIREALVS` have recorded soluble fraction (log2) that is -0.2 or more?
F

Does the sequence `HMSIESPEEFNAKFPPGSEIYATNIQKNAIVQSPANAKGDVEILANSMRLTINFRFISKRDT` have recorded soluble fraction (log2) that is -0.2 or more?
T

Does the sequence `HMNDVGKVLNQLGERDRMILLLTYWDELPLKEAARILEVSENNAKIILFRARSRFASLWSAGS` have recorded soluble fraction (log2) that is -0.2 or more?
F

Does the sequence `HMDDLSPEENKVIGAQVREELARRRLSRQHLADKAKISLSTLEKALTGTRPFTLASVVRIEEALQLQLRK` have recorded soluble fraction (log2) that is -0.2 or more?
T

Does the sequence `HMEALTPREREVLTLMGQGRSNAEIATLLSIAPRTAKVHVQNILSKLGATNRTEAVSLAVRQGLIS` have recorded soluble fraction (log2) that is -0.2 or more?
T

Does the sequence `HMFPNLTNEEQQVMKVLAKTNDLQINMLSVQSNLPIARLTALLFSMEMKGVVKTLAGGVYHLL` have recorded soluble fraction (log2) that is -0.2 or more?
T

Does the sequence `HMKYSELLLEIILQSKEHPTAEQIFIEAKKRNPKIVQATVYNNLKNLLAQGRVIRISNPGQPDRYDNT` have recorded soluble fraction (log2) that is -0.2 or more?
T

Does the sequence `HMDAEKHIVTPEAGLRLDRALTDALPNLSRSRVKQLINEGLVTTENKTITAPSYRVKYGDSFEISIPPPT` have recorded soluble fraction (log2) that is -0.2 or more?
T

Does the sequence `HMPEPMKLSDLPPELWQRVSDLFDEVIDLPETDRIPYIRNLWGSEPLVAKELMALLVAAANVD` have recorded soluble fraction (log2) that is -0.2 or more?
F

Does the sequence `HMKRTRLEEAMDWLREQLNDGPVAYATLKDEAPKAEITLSTLRAAGEALRVDKQKKGVQWGGWTWSLPR` have recorded soluble fraction (log2) that is -0.2 or more?
T

Does the sequence `HMDQQTKFKTALAALAASAETKDRKLTKADVKEFLEDMDLGEEQMKLVYAYLASKHIHVEGAE` have recorded soluble fraction (log2) that is -0.2 or more?
T

Does the sequence `HMKWIEILKSKDGNYALLQDEKDTQFVVASGYNPDAAEDQKWGHGSYFIYWNNKENKAEMLMNAIDLFRYR` have recorded soluble fraction (log2) that is -0.2 or more?
F

Does the sequence `HMRQSSLRTRELLIDAARQLFARFGVEKTTMNDIAEASKRGRRTVYMYFNSKSDVFYAVVGRE` have recorded soluble fraction (log2) that is -0.2 or more?
T

The values you see were collected from the domain aggregation screens of Martell et al. (2025).
